// provenance: patent US8367708B2

- TARGET_OF_ASSAY: human GPR120 (Homo sapiens)
- Sequence (Q5NUL3 whole entry): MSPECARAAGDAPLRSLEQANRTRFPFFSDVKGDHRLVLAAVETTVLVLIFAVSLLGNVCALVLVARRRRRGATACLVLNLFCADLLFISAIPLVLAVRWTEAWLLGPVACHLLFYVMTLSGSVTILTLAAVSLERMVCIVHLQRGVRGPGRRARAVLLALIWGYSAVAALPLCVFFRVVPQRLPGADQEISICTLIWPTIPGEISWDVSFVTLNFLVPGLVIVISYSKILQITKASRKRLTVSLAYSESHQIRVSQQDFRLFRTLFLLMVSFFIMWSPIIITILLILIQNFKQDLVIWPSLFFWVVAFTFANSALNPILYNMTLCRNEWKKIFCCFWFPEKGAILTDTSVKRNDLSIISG
- EXPERIMENT_SUMMARY: Measurement of intracellular calcium concentration (FLIPR), GPR120 agonist action
- CONDITION_INFO: human GPR120 expression CHO cells, Fluo-4 AM, read-out: IC50 (GPR120 agonist action)
READOUT_NAME: pEC50
Bear in mind: pEC50 is minus log10 of a mol/L concentration; give just that figure.

Sample records with pEC50:
Fill in: pEC50 of Oc1cc(-c2ccc(COc3cccc(Oc4ccccc4)c3)cc2)on1 [Example 45] is ___
6.77

Now the compound Oc1cc(-c2ccc(OCCc3cccc(Oc4ccccc4)c3)cc2)on1 [Example 38]
6.60

Next:
Fill in: pEC50 of Oc1cc(-c2ccc(OCc3cccc(Oc4ccccc4)n3)cc2)on1 [Example 3] is ___
6.74
